Where do these numbers come from? They come from patent US12134610B2.

Reported EC50 by item:
Biological target: SST2 (Homo sapiens, UniProt P30874)
Construct: host or cells: PathHunter CHO-K1 SST2 cells
Sequence (P30874 whole entry): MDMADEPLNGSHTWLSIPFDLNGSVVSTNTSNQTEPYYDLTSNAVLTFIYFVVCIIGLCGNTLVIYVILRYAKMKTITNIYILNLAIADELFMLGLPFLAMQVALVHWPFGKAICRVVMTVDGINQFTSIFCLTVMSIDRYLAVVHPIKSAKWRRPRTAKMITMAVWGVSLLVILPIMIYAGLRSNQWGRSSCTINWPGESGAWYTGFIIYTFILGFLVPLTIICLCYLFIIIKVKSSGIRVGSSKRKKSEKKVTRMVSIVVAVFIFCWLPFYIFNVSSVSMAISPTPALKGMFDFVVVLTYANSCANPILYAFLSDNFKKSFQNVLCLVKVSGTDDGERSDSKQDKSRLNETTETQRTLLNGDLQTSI
Test: PathHunter CHO-K1 SST2 internalization assay
Type: cell-based
Conditions: PathHunter CHO-K1 SST2, 90 min; read-out: Internalization EC50
Experimental: SMDCs of the present invention were assessed in vitro using the human PathHunter CHO-K1 SST2 β-arrestin2 and PathHunter CHO-K1 SST2 Internalization Assays from DiscoverX. The CHO-K cells were seeded in 20 μLs of cell culture medium in a white-walled 384 well tissue culture-compatible plate at a density of 2500 cells/well. […] Luminescence was measured using a Tecan plate reader. […]
Starred links: 1 amine or outer side, 2 acyl side, 3 side chain; linkers in the order of their positions; H or OH if unused. Non-standard residues stand in square brackets, D forms with d. Residues, ends and D or L forms follow the SMILES beside them. *: point of attachment. X1 = Cc1cc(F)cc(-c2cnc(NCCNC(=O)CCOCCC(=O)*)c(-c3nc4ccc(Cl)cc4[nH]3)c2N2CCC(N)CC2)c1; Dolaproine = CO[C@@H]([C@@H]1CCCN1)[C@@H](C)C(=O)O; Dil = CC[C@H](C)[C@H](NC)[C@@H](CC(=O)O)OC; PABC = O=C(OCc1ccc(N[*:1])cc1)[*:2]; X2 = C[C@@H](N*)[C@@H](O)c1ccccc1; dCya = N[C@H](CS(=O)(=O)O)C(=O)O; Cit = NC(=O)NCCC[C@H](N)C(=O)O; NMeV = CN[C@H](C(=O)O)C(C)C
readout.name: EC50 (nM)

# compound, readout.name, scale.unit, assay.value
measured = [
    ("CC[C@H](C)[C@@H]([C@@H](CC(=O)N1CCC[C@H]1[C@H](OC)[C@@H](C)C(=O)N[C@H](C)[C@@H](O)c1ccccc1)OC)N(C)C(=O)[C@@H](NC(=O)[C@H](C(C)C)N(C)C(=O)OCc1ccc(NC(=O)[C@H](CCCNC(N)=O)NC(=O)[C@@H](NC(=O)CCOCCOCCOCCOCCC(=O)NCCNc2ncc(-c3cc(C)cc(F)c3)c(N3CCC(N)CC3)c2-c2nc3ccc(Cl)cc3[nH]2)C(C)C)cc1C(=O)NCCN)C(C)C", "EC50", "nM", 7.7),
    ("CC[C@H](C)[C@@H]([C@@H](CC(=O)N1CCC[C@H]1[C@H](OC)[C@@H](C)C(=O)N[C@H](C)[C@@H](O)c1ccccc1)OC)N(C)C(=O)[C@@H](NC(=O)[C@H](C(C)C)N(C)C(=O)OCc1ccc(NC(=O)[C@H](C)NC(=O)[C@@H](NC(=O)[C@H](CCC(N)=O)NC(=O)CCCCCC(=O)NCCNc2ncc(-c3cc(C)cc(F)c3)c(N3CCC(N)CC3)c2-c2nc3ccc(Cl)cc3[nH]2)C(C)C)cc1C(=O)NCCN)C(C)C", "EC50", "nM", 3),
    ("CC[C@H](C)[C@@H]([C@@H](CC(=O)N1CCC[C@H]1[C@H](OC)[C@@H](C)C(=O)N[C@H](C)[C@@H](O)c1ccccc1)OC)N(C)C(=O)[C@@H](NC(=O)[C@H](C(C)C)N(C)C(=O)OCc1ccc(NC(=O)[C@H](C)NC(=O)[C@@H](NC(=O)CCOCCC(=O)NCCNc2ncc(-c3cc(C)cc(F)c3)c(N3CCC(N)CC3)c2-c2nc3ccc(Cl)cc3[nH]2)C(C)C)c(O[C@@H]2O[C@H](CO)[C@@H](O)[C@H](O)[C@H]2O)c1)C(C)C", "EC50", "nM", 5.2),
    ("CC[C@H](C)[C@@H]([C@@H](CC(=O)N1CCC[C@H]1[C@H](OC)[C@@H](C)C(=O)N[C@H](C)[C@@H](O)c1ccccc1)OC)N(C)C(=O)[C@@H](NC(=O)[C@H](C(C)C)N(C)C(=O)OCc1ccc(NC(=O)[C@H](CCCNC(N)=O)NC(=O)[C@@H](NC(=O)[C@H](CCC(N)=O)NC(=O)CCOCCC(=O)NCCNc2ncc(-c3cc(C)cc(F)c3)c(N3CCC(N)CC3)c2-c2nc3ccc(Cl)cc3[nH]2)C(C)C)cc1C(N)=O)C(C)C", "EC50", "nM", 2.9),
    ("CC[C@H](C)[C@@H]([C@@H](CC(=O)N1CCC[C@H]1[C@H](OC)[C@@H](C)C(=O)N[C@H](C)[C@@H](O)c1ccccc1)OC)N(C)C(=O)[C@@H](NC(=O)[C@H](C(C)C)N(C)C(=O)OCc1ccc(NC(=O)[C@H](CCCNC(N)=O)NC(=O)[C@@H](NC(=O)[C@H](CS(=O)(=O)O)NC(=O)CCOCCC(=O)NCCNc2ncc(-c3cc(C)cc(F)c3)c(N3CCC(N)CC3)c2-c2nc3ccc(Cl)cc3[nH]2)C(C)C)cc1C(=O)NCCN)C(C)C", "EC50", "nM", 2.8),
    ("COc1cc2cc(c1Cl)N(C)C(=O)CC(OC(=O)[C@@H](C)N(C)C(=O)CCSSCCNC(=O)CNC(=O)C[C@@H](N)C(=O)NCCNc1ncc(-c3cc(C)cc(F)c3)c(N3CCC(N)CC3)c1-c1nc3ccc(Cl)cc3[nH]1)[C@]1(C)OC1[C@@H](C)C1C[C@@](O)(NC(=O)O1)[C@H](OC)/C=C/C=C(\\C)C2 (stereo partly drawn)", "EC50", "nM", 6.3),
    ("CC[C@H](C)[C@@H]([C@@H](CC(=O)N1CCC[C@H]1[C@H](OC)[C@@H](C)C(=O)N[C@H](C)[C@@H](O)c1ccccc1)OC)N(C)C(=O)[C@@H](NC(=O)[C@H](C(C)C)N(C)C(=O)OCc1ccc(NC(=O)[C@H](CCCNC(N)=O)NC(=O)[C@@H](NC(=O)[C@@H](CS(=O)(=O)O)NC(=O)CCOCCC(=O)NCCNc2ncc(-c3cc(C)cc(F)c3)c(N3CCC(N)CC3)c2-c2nc3ccc(Cl)cc3[nH]2)C(C)C)cc1)C(C)C [Compound 104] (X1-[dCya]V[Cit][PABC][NMeV]V[Dil][Dolaproine]-X2)", "EC50", "nM", 2.8),
    ("CC[C@H](C)[C@@H]([C@@H](CC(=O)N1CCC[C@H]1[C@H](OC)[C@@H](C)C(=O)N[C@H](C)[C@@H](O)c1ccccc1)OC)N(C)C(=O)[C@@H](NC(=O)[C@H](C(C)C)N(C)C(=O)OCc1ccc(NC(=O)[C@H](CCCNC(N)=O)NC(=O)[C@@H](NC(=O)[C@H](CCC(=O)O)NC(=O)[C@H](CCC(=O)O)NC(=O)CCOCCC(=O)NCCNc2ncc(-c3cc(C)cc(F)c3)c(N3CCC(N)CC3)c2-c2nc3ccc(Cl)cc3[nH]2)C(C)C)cc1)C(C)C [Compound 98] (X1-EEV[Cit][PABC][NMeV]V[Dil][Dolaproine]-X2)", "EC50", "nM", 2.9),
    ("COc1cc2cc(c1Cl)N(C)C(=O)CC(OC(=O)[C@@H](C)N(C)C(=O)CCS[C@@H]1CC(=O)N(CC3CCC(C(=O)NCCCC[C@H](N)C(=O)NCCNc4ncc(-c5cc(C)cc(F)c5)c(N5CCC(N)CC5)c4-c4nc5ccc(Cl)cc5[nH]4)CC3)C1=O)[C@]1(C)OC1[C@@H](C)C1C[C@@](O)(NC(=O)O1)[C@H](OC)/C=C/C=C(\\C)C2 (stereo partly drawn)", "EC50", "nM", 23.6),
]
